melting point reference
READOUT_TYPE: melting point

# MOLECULE, MEASURED_RESULT
records = [
    ("CCOP(=O)(CNC(=O)Cn1ccc(NC(=O)OCc2ccccc2)nc1=O)OCC (hydrate or solvate)", "180 to 182 °C"),
    ("CCOP(=O)(CNC(=O)Cn1cc(F)c(=O)[nH]c1=O)OCC (hydrate or solvate)", "205 to 208 °C"),
    ("CCOP(=O)(CCNC(=O)Cn1cc(F)c(=O)[nH]c1=O)OCC", "185 to 186 °C"),
    ("CCOP(=O)(CCNC(=O)Cn1cnc2c(=O)[nH]c(N)nc21)OCC (hydrate or solvate)", "175 °C (dec.)"),
    ("CCOP(=O)(CCCNC(=O)Cn1cc(Br)c(=O)[nH]c1=O)OCC", "164 to 166 °C"),
    ("CCOP(=O)(CCCNC(=O)Cn1cc(F)c(=O)[nH]c1=O)OCC (hydrate or solvate)", "143 to 144 °C"),
    ("CCOP(=O)(CNC(=O)Cn1cc(Br)c(=O)[nH]c1=O)OCC", "211 to 213 °C"),
    ("CCOP(=O)(CCCNC(=O)Cn1cc(C)c(=O)[nH]c1=O)OCC (hydrate or solvate)", "183 to 184 °C"),
    ("CCOP(=O)(CNC(=O)Cn1ccc(=O)[nH]c1=O)OCC", "215 to 217 °C"),
    ("CCOP(=O)(CCCNC(=O)Cn1cnc2c(Cl)nc(N)nc21)OCC", "180 to 181 °C"),
    ("CCOP(=O)(CCNC(=O)Cn1ccc(=O)[nH]c1=O)OCC", "138 to 140 °C"),
    ("CCOP(=O)(CCNC(=O)Cn1c(=O)[nH]c(=O)c2ccccc21)OCC", "180 to 182 °C"),
    ("CCOP(=O)(CCNC(=O)Cn1ccc(NC(=O)OCc2ccccc2)nc1=O)OCC", "127 to 128 °C"),
    ("CCOP(=O)(CCCNC(=O)Cn1ccc(NC(=O)OCc2ccccc2)nc1=O)OCC", "150 to 151 °C"),
    ("CCOP(=O)(CCCNC(=O)Cn1cnc2c(=O)[nH]c(N)nc21)OCC (hydrate or solvate)", "155 °C (dec.)"),
    ("CCOP(=O)(CCNC(=O)Cn1cc(Br)c(=O)[nH]c1=O)OCC", "211 to 213 °C"),
    ("CCOP(=O)(CCNC(=O)Cn1cc(C)c(=O)[nH]c1=O)OCC", "196 to 197 °C"),
    ("CCOP(=O)(CCCNC(=O)Cn1c(=O)[nH]c(=O)c2ccccc21)OCC", "168 to 169 °C"),
    ("CCOP(=O)(CNC(=O)Cn1cnc2c(=O)[nH]c(N)nc21)OCC (hydrate or solvate)", "165 °C (dec.)"),
    ("CCOP(=O)(CCNC(=O)Cn1cnc2c(Cl)nc(N)nc21)OCC", "158 to 160 °C"),
    ("CCOP(=O)(CNC(=O)Cn1cnc2c(N(C(=O)OC(C)(C)C)C(=O)OC(C)(C)C)ncnc21)OCC", "128 to 130 °C"),
    ("CCOP(=O)(CCCNC(=O)Cn1ccc(=O)[nH]c1=O)OCC (hydrate or solvate)", "120 to 122 °C"),
    ("CCOP(=O)(CNC(=O)Cn1cc(C)c(=O)[nH]c1=O)OCC", "211.5 to 212.5 °C"),
    ("CCOP(=O)(CNC(=O)Cn1c(=O)[nH]c(=O)c2ccccc21)OCC (hydrate or solvate)", "203 to 205 °C"),
    ("CCOP(=O)(COCCNC(=O)Cn1cc(F)c(=O)[nH]c1=O)OCC [18d]", "69 to 70 °C"),
    ("CCOP(=O)(CNC(=O)Cn1cnc2c(Cl)nc(N)nc21)OCC (hydrate or solvate)", "130 to 132 °C"),
]
